Tested on: MRSA
Experiment: Kill or inhibit growth/proliferation; morphology, biofilm and growth disruption (Tables 5, 6); further: test concentration or dose not given here
Format: cell-based, Methicillin-resistant Staphylococcus aureus
Parameters: key: A: Peptide aggregates; B: Less hyphal formation; Clumps; Diffuse clumps and small polyps; F: Diffuse growth; H: Thin; I: Growth inhibition; Microcolony formation; Rippled; Small polyps; Thick; W: Halo formation on top, microlonies on bottom
readout label: Organism, effect

// known answers, use as guide
PF-546: peptide having multiple activities (chain 1 PIIAPTIKTQIQ; chain 2 PIIAPTIKTQIQ; Peptide with targeting and/or antimicrobial activity)    MRSA (D)
PF-410: peptide having multiple activities (FALELIALCRNLFIVYFP; Peptide with targeting and/or antimicrobial activity)    MRSA (M)
PF-357: peptide having multiple activities (chain 1 MLTIIIGFIFWTMTLMLGYLIGEREGRKHE; chain 2 MLTIIIGFIFWTMTLMLGYLIGEREGRKHE; Peptide with targeting and/or antimicrobial activity)    MRSA (M)
PF-592: peptide having multiple activities (IMKNYKYFKLFIVKYALF; Peptide with targeting and/or antimicrobial activity)    MRSA (D)
PF-615: peptide having multiple activities (FLNRFIFYIFTVKTKSALIKNLFLD; Peptide with targeting and/or antimicrobial activity)    MRSA (D)

Quick request: Organism, effect for each listed item, please.
1. PF-058: peptide having multiple activities (chain 1 FADQSQDNA; chain 2 FADQSQDNA; Peptide with targeting and/or antimicrobial activity)
2. PF-390: peptide having multiple activities (chain 1 VVAYVITQVGAIRF; chain 2 VVAYVITQVGAIRF; Peptide with targeting and/or antimicrobial activity)

// result
["MRSA (M)", "MRSA (D)"]

====

Test system: microorganisms
Assay: Peptides having multiple activities (targeting/binding, antimicrobial, growth or phenotype altering)
Ends that are not written are not given here.
readout label: Activities

// known answers, use as guide
PF-418: peptide having multiple activities (FFLVHFYIRKRKGKVSIFLNYF; Peptide with targeting and/or antimicrobial activity)    G B
PF-C181: peptide having multiple activities (KMRAGQVVFIYKLILVLLFYVLQKLFDLKKGCF; Peptide with targeting and/or antimicrobial activity)    G B
PF-584: peptide having multiple activities (SYIKNLSNQKFLIAF; Peptide with targeting and/or antimicrobial activity)    G B
PF-605: peptide having multiple activities (HYRWNTQWWKY; Peptide with targeting and/or antimicrobial activity)    G B
PF-626: peptide having multiple activities (KYDFDDFEPEEA; Peptide with targeting and/or antimicrobial activity)    G B
PF-518: peptide having multiple activities (chain 1 SFYSKYSRYIDNLAGAIFLFF; chain 2 SFYSKYSRYIDNLAGAIFLFF; Peptide with targeting and/or antimicrobial activity)    G B

Quick request: Activities for each listed item, please.
1. PF-446: peptide having multiple activities (chain 1 SGNEKV; chain 2 SGNEKV; Peptide with targeting and/or antimicrobial activity)
2. PF-276: peptide having multiple activities (LDLALSTNSLNLEGFSF; Peptide with targeting and/or antimicrobial activity)
3. GSVIKKRRKRMAKKKHRKLLKKTRIQRRRAGK [PF-527]
4. SFMPEIQKNTIPTQMK [PF-512]
5. PF-378: peptide having multiple activities (chain 1 ESAKSNLNFLMQEEWALFLLL; chain 2 ESAKSNLNFLMQEEWALFLLL; Peptide with targeting and/or antimicrobial activity)
6. PF-C055: peptide having multiple activities (YNLSIYIYFLHTITIAGLITLPFII; Peptide with targeting and/or antimicrobial activity)
7. PF-550: peptide having multiple activities (chain 1 STENGWQEFESYADVGVDPRRYVPL; chain 2 STENGWQEFESYADVGVDPRRYVPL; Peptide with targeting and/or antimicrobial activity)

// result
1: G B; 2: G B; 3: G B M; 4: G B M; 5: G B; 6: G B; 7: G B

Quick request: Activities for each listed item, please.
1. PF-164: peptide having multiple activities (EEVSRALAGIGLGLGCRIG; Peptide with targeting and/or antimicrobial activity)
2. PF-417: peptide having multiple activities (DSYFRS; Peptide with targeting and/or antimicrobial activity)

// result
1. G B
2. G B

Quick request: Activities for each listed item, please.
1. PF-156: peptide having multiple activities (LITAEQPATAPIAGK; Peptide with targeting and/or antimicrobial activity)
2. NYAVVSHT [PF-209]
3. PF-458: peptide having multiple activities (chain 1 ISLIIFIMLFVVALFKCITNYKHQS; chain 2 ISLIIFIMLFVVALFKCITNYKHQS; Peptide with targeting and/or antimicrobial activity)

// result
G B
G B M
G B

Quick request: Activities for each listed item, please.
1. PF-405: peptide having multiple activities (LVRIEVDDLEEWYERNFI; Peptide with targeting and/or antimicrobial activity)
2. VLPFPAIPLSRRRACVAAPRPRSRQRAS [PF-168]
3. PF-233: peptide having multiple activities (DANAMARTTIAIVYILALIALTISYSL; Peptide with targeting and/or antimicrobial activity)
4. LSEMERRRLRKRA-NH2 [PF-529]
5. PF-590: peptide having multiple activities (YYQAKLFPLL; Peptide with targeting and/or antimicrobial activity)
6. SKFKVLRKIIIKEYKGELMLSIQKQR [PF-530]

// result
["G B", "G B M", "G B", "G B M", "G B", "G M"]

====

System: microorganisms (e.g., bacteria, yeasts, fungi)
Test: Targeting peptide binding to target microorganisms (Table 3)
Settings: peptide binding in aqueous buffers varied by peptide solubility; preferably 1x PBS
readout label: Target(s) (microorganisms bound by the targeting peptide)

// known answers, use as guide
PF-645 (chain 1 SNSVQQG; chain 2 SNSVQQG; Peptide with targeting and/or antimicrobial activity)    Mycobacteria spp
PF-780 (AVYDALVALAAAEHRAELATRDARAKDTYEKIGVHVVVAA; Peptide with targeting and/or antimicrobial activity)    Mycobacteria spp.
PF-797 (WYYFDNNGYM; Peptide with targeting and/or antimicrobial activity)    S. mutans
PF-690 (chain 1 MIPLAGDPVSSHRTVEFGVLGTYLVSGGSL; chain 2 MIPLAGDPVSSHRTVEFGVLGTYLVSGGSL; Peptide with targeting and/or antimicrobial activity)    Mycobacteria spp
PF-798 (ALHSKGIKVMADWVPDQMYA; Peptide with targeting and/or antimicrobial activity)    S. mutans
PF-783 (FTSEVRGVFTYRVNKAGLITNMRGYWNLDMMTFGNQE; Peptide with targeting and/or antimicrobial activity)    Mycobacteria spp.
PF-695 (chain 1 ALSVMLGNIPLVVPNANQL; chain 2 ALSVMLGNIPLVVPNANQL; Peptide with targeting and/or antimicrobial activity)    Mycobacteria spp
PF-692 (chain 1 GVAREDPLEPDPLAPIIDDSR; chain 2 GVAREDPLEPDPLAPIIDDSR; Peptide with targeting and/or antimicrobial activity)    Mycobacteria spp
PF-698 (chain 1 SSGRAGVKCRRPTGR; chain 2 SSGRAGVKCRRPTGR; Peptide with targeting and/or antimicrobial activity)    Mycobacteria spp
PF-778 (MNLILTAHGT; Peptide with targeting and/or antimicrobial activity)    Mycobacteria spp.

Quick request: Target(s) (microorganisms bound by the targeting peptide) for each listed item, please.
1. PF-784 (MAMTTVDNIVGLVIAVALMAFLFAALLFPEKF; Peptide with targeting and/or antimicrobial activity)
2. PF-660 (chain 1 TDPQATAAPRRRTSPR; chain 2 TDPQATAAPRRRTSPR; Peptide with targeting and/or antimicrobial activity)

// result
1. Mycobacteria spp.
2. Mycobacteria spp

====

Test system: MRSA
Assay: Kill or inhibit growth/proliferation; morphology, biofilm and growth disruption (Tables 5, 6); further: test concentration or dose not given here
Assay type: cell-based, Methicillin-resistant Staphylococcus aureus
Design: key: A: Peptide aggregates; B: Less hyphal formation; Clumps; Diffuse clumps and small polyps; F: Diffuse growth; H: Thin; I: Growth inhibition; Microcolony formation; Rippled; Small polyps; Thick; W: Halo formation on top, microlonies on bottom
readout label: Organism, effect

// known answers, use as guide
PF-638: peptide having multiple activities (chain 1 TFILPK; chain 2 TFILPK; Peptide with targeting and/or antimicrobial activity)    MRSA (M)
PF-431: peptide having multiple activities (VAYAAICWW; Peptide with targeting and/or antimicrobial activity)    MRSA (C)
PF-549: peptide having multiple activities (chain 1 TGIGPIARPIEHGLDS; chain 2 TGIGPIARPIEHGLDS; Peptide with targeting and/or antimicrobial activity)    MRSA (C)
PF-370: peptide having multiple activities (chain 1 VIFLHKESGNLKEIFY; chain 2 VIFLHKESGNLKEIFY; Peptide with targeting and/or antimicrobial activity)    MRSA (C)

Then there is this substance:
// query Please look up its Organism, effect: PF-432: peptide having multiple activities (FNGDSEFFLCIAF; Peptide with targeting and/or antimicrobial activity)
// result MRSA (M)

====

System: MRSA
Assay: Kill or inhibit growth/proliferation; morphology, biofilm and growth disruption (Tables 5, 6); further: test concentration or dose not given here
Format: cell-based, Methicillin-resistant Staphylococcus aureus
Set-up: key: A: Peptide aggregates; B: Less hyphal formation; Clumps; Diffuse clumps and small polyps; F: Diffuse growth; H: Thin; I: Growth inhibition; Microcolony formation; Rippled; Small polyps; Thick; W: Halo formation on top, microlonies on bottom
readout label: Organism, effect

// known answers, use as guide
PF-632: peptide having multiple activities (chain 1 TTIQGVASLEKHGFRYTIIYPTRI; chain 2 TTIQGVASLEKHGFRYTIIYPTRI; Peptide with targeting and/or antimicrobial activity)    MRSA (D)
ALDCSEQSVILWYETILDKIVGVIK [PF-028]    MRSA (R)
PF-576: peptide having multiple activities (chain 1 AYSGELPEPLVRKMSKEQVRSVMGK; chain 2 AYSGELPEPLVRKMSKEQVRSVMGK; Peptide with targeting and/or antimicrobial activity)    MRSA (R)
PF-558: peptide having multiple activities (chain 1 ADAPPPLIVRYS; chain 2 ADAPPPLIVRYS; Peptide with targeting and/or antimicrobial activity)    MRSA (C)
PF-027: peptide having multiple activities (chain 1 HNARKYLEFISQKIDGDKLTKEDSL; chain 2 HNARKYLEFISQKIDGDKLTKEDSL; Peptide with targeting and/or antimicrobial activity)    MRSA (M)

Quick request: Organism, effect for each listed item, please.
1. LIQKGLNQTFIVVIRLNNFIKKS [PF-013]
2. PF-021: peptide having multiple activities (chain 1 FSLNFSKQKYVTVN; chain 2 FSLNFSKQKYVTVN; Peptide with targeting and/or antimicrobial activity)
3. PF-171: peptide having multiple activities (TQVTLCRTW; Peptide with targeting and/or antimicrobial activity)
4. PF-010: peptide having multiple activities (chain 1 MDIDVNKLLQAFVYFKSFEKLRHNNS; chain 2 MDIDVNKLLQAFVYFKSFEKLRHNNS; Peptide with targeting and/or antimicrobial activity)
5. PF-398: peptide having multiple activities (ILVVLAGILLVVLSYVGISKFKMNC; Peptide with targeting and/or antimicrobial activity)
6. PF-378: peptide having multiple activities (chain 1 ESAKSNLNFLMQEEWALFLLL; chain 2 ESAKSNLNFLMQEEWALFLLL; Peptide with targeting and/or antimicrobial activity)
7. PF-567: peptide having multiple activities (chain 1 QQRVKAVDASLSQVSTQVSGAVASA; chain 2 QQRVKAVDASLSQVSTQVSGAVASA; Peptide with targeting and/or antimicrobial activity)
8. PF-595: peptide having multiple activities (LQNKIYELLYIKERSKLCS; Peptide with targeting and/or antimicrobial activity)

// result
1: MRSA (R); 2: MRSA (R); 3: MRSA (M); 4: MRSA (R); 5: MRSA (C); 6: MRSA (M); 7: MRSA (D); 8: MRSA (D)

Quick request: Organism, effect for each listed item, please.
1. PF-440: peptide having multiple activities (chain 1 MFIISPDLFNIAVILYILFFIHDILLLILS; chain 2 MFIISPDLFNIAVILYILFFIHDILLLILS; Peptide with targeting and/or antimicrobial activity)
2. PF-429: peptide having multiple activities (AATLICVGSGIMSSL; Peptide with targeting and/or antimicrobial activity)
3. PF-612: peptide having multiple activities (GTTLKYGLERQLKIDIHPEITIINLNGGADEFAKL; Peptide with targeting and/or antimicrobial activity)
4. PF-403: peptide having multiple activities (LLSTEQLLKYYDGETFDGFQLPSNE; Peptide with targeting and/or antimicrobial activity)
5. PF-376: peptide having multiple activities (chain 1 MTVFEALMLAIAFATLIVKISNKNDKK; chain 2 MTVFEALMLAIAFATLIVKISNKNDKK; Peptide with targeting and/or antimicrobial activity)

// result
MRSA (C)
MRSA (C)
MRSA (C)
MRSA (M)
MRSA (C)

Origin of the recorded values: patent US20110039762A1
